- SUBJECT OF TEST: IPOA5 (Homo sapiens, UniProt P52294)
- Construct: Expression and purification of full length IPOA5, IPO5 were perform according to methods described previously; His tag; made in house; host or cells: Escherichia coli BL21(DE3), pET21 vector
- Sequence (P52294 whole entry): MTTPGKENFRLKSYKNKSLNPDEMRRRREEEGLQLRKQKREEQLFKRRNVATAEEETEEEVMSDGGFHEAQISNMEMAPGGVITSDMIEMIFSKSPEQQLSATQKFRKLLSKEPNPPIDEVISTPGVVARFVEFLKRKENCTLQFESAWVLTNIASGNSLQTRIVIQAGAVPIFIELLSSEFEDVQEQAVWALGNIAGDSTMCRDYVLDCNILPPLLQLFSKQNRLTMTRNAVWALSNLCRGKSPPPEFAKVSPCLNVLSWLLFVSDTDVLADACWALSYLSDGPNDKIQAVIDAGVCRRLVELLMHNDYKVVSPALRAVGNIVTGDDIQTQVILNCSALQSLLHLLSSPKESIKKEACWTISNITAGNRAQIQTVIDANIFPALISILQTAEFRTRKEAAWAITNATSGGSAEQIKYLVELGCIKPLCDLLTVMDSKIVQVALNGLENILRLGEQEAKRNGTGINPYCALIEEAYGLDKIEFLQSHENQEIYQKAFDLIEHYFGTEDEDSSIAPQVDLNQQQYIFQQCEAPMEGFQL
- RUN DESCRIPTION: biochemical
- Type: binding
Ends that are not written are not given here.
Exercise: for every item that follows, state its recorded Kd.
Give your result in nM as a bare value.

Dear colleague, I am looking for the recorded Kd of the following sequence: PPPRRRRTVRQIKIWFQNRRMKWKK [NS5A NLS] 7630

Now consider RSQRRGRTTGRGRRQIKIWFQNRRMKWKK [NS3 NLS 2] and answer again. 36.6

Now consider PRHRSRNVGKRQIKIWFQNRRMKWKK [Core NLS 4] and answer again. 518
